target: GlyT1 (Homo sapiens, UniProt P48067); construct: expressed in transfected cells; assay: Glycine Transporter 1 (GlyT1) uptake assay, scintillation proximity assay of [14C]-glycine uptake; format: cell-based; settings: [14C]-glycine uptake; read-out: GlyT1 (pIC50) (converted)
Sequence (P48067 whole entry): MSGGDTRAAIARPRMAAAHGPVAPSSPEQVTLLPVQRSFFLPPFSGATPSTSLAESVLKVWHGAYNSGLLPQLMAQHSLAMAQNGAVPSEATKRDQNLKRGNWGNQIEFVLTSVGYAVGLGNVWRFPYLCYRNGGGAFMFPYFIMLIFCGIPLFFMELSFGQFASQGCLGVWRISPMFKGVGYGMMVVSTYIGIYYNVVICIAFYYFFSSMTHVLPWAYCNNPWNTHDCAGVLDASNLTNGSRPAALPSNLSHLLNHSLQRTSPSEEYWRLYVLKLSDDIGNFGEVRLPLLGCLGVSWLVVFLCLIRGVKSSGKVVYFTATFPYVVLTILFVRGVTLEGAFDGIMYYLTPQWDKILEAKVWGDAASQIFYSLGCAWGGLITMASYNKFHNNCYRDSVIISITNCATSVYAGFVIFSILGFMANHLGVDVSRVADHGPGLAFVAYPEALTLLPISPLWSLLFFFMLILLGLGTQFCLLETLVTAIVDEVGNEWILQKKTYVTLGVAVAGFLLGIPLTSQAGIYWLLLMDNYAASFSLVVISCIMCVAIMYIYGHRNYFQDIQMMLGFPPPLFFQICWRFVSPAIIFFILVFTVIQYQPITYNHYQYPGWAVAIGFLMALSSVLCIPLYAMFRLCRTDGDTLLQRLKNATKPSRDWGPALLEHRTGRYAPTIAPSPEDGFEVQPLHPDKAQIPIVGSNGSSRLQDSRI
Here, each record is paired with measured IC50 data.
PROPERTY LABEL: IC50

COMPOUND	PROPERTY LABEL	RESULT
COc1c(C#N)ccc(O[C@@H](C)C(F)(F)F)c1C(=O)N1CC(Cc2ccc(C(F)(F)F)cc2)C1 [Example 181]	IC50	100 to 1000 nM
CCS(=O)(=O)c1ccc(OC(C)C)c(C(=O)N2CC(Oc3cc(F)c(F)cc3F)C2)c1OC [Example 245]	IC50	< 100 nM
COc1c(S(C)(=O)=O)ccc(O[C@@H](C)C(F)(F)F)c1C(=O)N1CC(c2cc(F)cc(F)c2F)C1 [Example 156]	IC50	< 100 nM
CC(Oc1ccc(C#N)c(Cl)c1C(=O)N1CC(c2ccc(F)cc2)C1)C(F)(F)F (centres unmarked) [Example 86]	IC50	100 to 1000 nM
COc1c(C#N)ccc(OC(C)C(F)(F)F)c1C(=O)N1CC(c2ccc(C(F)(F)F)cc2)C1 (centres unmarked) [Example 98]	IC50	100 to 1000 nM
COc1c(S(C)(=O)=O)ccc(OCC(F)(F)F)c1C(=O)N1CC(Oc2c(F)cc(F)cc2F)C1 [Example 225]	IC50	100 to 1000 nM
COc1c(S(C)(=O)=O)ccc(OCC(F)(F)F)c1C(=O)N1CC(c2ccc(F)c(F)c2)C1 [Example 228]	IC50	100 to 1000 nM
CC(Oc1ccc(C#N)c(Cl)c1C(=O)N1CC(c2ccccc2F)C1)C(F)(F)F (centres unmarked) [Example 87]	IC50	100 to 1000 nM
